# EXPERIMENTAL_TARGET: SCRIB2 PDZ (Homo sapiens, UniProt Q14160)
# Sequence (Q14160 862-950 limits assumed): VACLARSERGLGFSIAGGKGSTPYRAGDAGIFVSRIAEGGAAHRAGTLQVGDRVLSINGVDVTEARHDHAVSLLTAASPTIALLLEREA
# EXPERIMENTAL_PROTOCOL: Holdup assay
# Type: binding
# TEST_SETTINGS: PBM motif of the named protein vs SCRIB_2 PDZ; read-out: pKd values – domain-motif, SCRIB_2 (converted)
Ends that are not written are not given here.
Lab note: cut-off is 200 µM. Strictly less in Kd is class 1. Exactly 200 µM or more is class 0.

ATKDKKITTV [EXOC4]	class 0

Query block: Please check: Kd for IDNDTESTAL [ARHGAP17] , strictly under 200 µM or not?
Result block: class 0

Query block: Please check: Kd for KKYVDAETSL [SLC4A7] , strictly under 200 µM or not?
Result block: class 1

Query block: Please check: Kd for VKPQVSESKL [ACOT8] , strictly under 200 µM or not?
Result block: class 0

Query block: Please check: Kd for SRPHTNETSL [MCC] , strictly under 200 µM or not?
Result block: class 1

====

# EXPERIMENTAL_TARGET: SCRIB_1 PDZ (Homo sapiens, UniProt Q14160)
# EXPERIMENTAL_PROTOCOL: Holdup assay
# Assay type: binding
# TEST_SETTINGS: PBM motif of the named protein vs SCRIB_1 PDZ; read-out: pKd values – domain-motif, SCRIB_1 (converted)
Ends that are not written are not given here.
Lab note: cut-off is 50 µM. Strictly less in Kd is t. Exactly 50 µM or more is f.

Here's what some known entries look like.
VKPQVSESKL [ACOT8]	t
IDNDTESTAL [ARHGAP17]	t
ATKDKKITTV [EXOC4]	f

Query block: Please check: Kd for KKYVDAETSL [SLC4A7] , strictly under 50 µM or not?
Result block: t

Query block: Please check: Kd for SRPHTNETSL [MCC] , strictly under 50 µM or not?
Result block: t

Query block: Please check: Kd for TVASEKESVM [SLC1A5] , strictly under 50 µM or not?
Result block: t

Query block: Please check: Kd for QPRTWLQSPV [RTKN] , strictly under 50 µM or not?
Result block: f

====

Please provide measured Kd for the entries that follow.
# EXPERIMENTAL_TARGET: SNX27 PDZ (Homo sapiens)
# EXPERIMENTAL_PROTOCOL: Holdup assay
# Format: binding
# TEST_SETTINGS: holdup affinity of the PBM peptide of the named protein; sheet PBMcomplexome, lower sub-table
Ends that are not written are not given here.
Give your result as the value with the unit written after it.

GFGEERESIL [KIDINS220]	2570 nM

// next item, Kd requested
Query block: Look up Kd: IQREDQETAV [DGKZ]
Result block: 1000 nM

====

# EXPERIMENTAL_TARGET: TX1BP3 PDZ (Homo sapiens, UniProt O14907)
# Sequence (O14907 15-112 limits assumed): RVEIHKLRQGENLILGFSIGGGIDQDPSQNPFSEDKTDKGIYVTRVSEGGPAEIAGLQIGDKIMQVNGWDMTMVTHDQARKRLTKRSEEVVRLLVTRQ
# EXPERIMENTAL_PROTOCOL: Holdup assay
# Assay type: binding
# TEST_SETTINGS: PBM motif of the named protein vs TX1BP3 PDZ; read-out: pKd values – domain-motif, TX1BP3 (converted)
Ends that are not written are not given here.
Please provide measured Kd for the entries that follow.
Numbers only, in µM.

Worked examples, 5 sequences total:
LSEFKAMDSI [CTNNA1]	339
QPRTWLQSPV [RTKN]	0.891
TVASEKESVM [SLC1A5]	204
SRPHTNETSL [MCC]	75.9
KKYVDAETSL [SLC4A7]	151

// next item, Kd requested
Query block: Look up Kd: ATKDKKITTV [EXOC4]
Result block: 123

====

Please provide measured Kd for the entries that follow.
# EXPERIMENTAL_TARGET: DLG1_2 PDZ (Homo sapiens)
# EXPERIMENTAL_PROTOCOL: Holdup assay
# Format: binding
# TEST_SETTINGS: PBM motif of the named protein vs DLG1_2 PDZ; read-out: pKd values – domain-motif, DLG1_2 (converted)
Ends that are not written are not given here.
Numbers only, in µM.

Worked examples, 3 sequences total:
SRPHTNETSL [MCC]	64.6
ATKDKKITTV [EXOC4]	1.23
QPRTWLQSPV [RTKN]	50.1

Query block: Form field - read-out: Kd; system: DLG1_2 PDZ (Homo sapiens); submitted item: KKYVDAETSL [SLC4A7]
Result block: 275

====

Please provide measured pKd for the entries that follow.
# EXPERIMENTAL_TARGET: SNX27 PDZ (Homo sapiens)
# EXPERIMENTAL_PROTOCOL: Holdup assay
# Type: binding
Ends that are not written are not given here.
Give bare numbers, as −log10 of the molar value.

Worked examples, 7 sequences total:
SRPHTNETSL [MCC]	5.72
TVASEKESVM [SLC1A5]	5.29
KKYVDAETSL [SLC4A7]	5.71
IDNDTESTAL [ARHGAP17]	4.97
ATKDKKITTV [EXOC4]	4.38
EKQAKGDTEF [CACYBP]	3.68
QPRTWLQSPV [RTKN]	4.31

// next item, pKd requested
Query block: Look up pKd: VKPQVSESKL [ACOT8]
Result block: 5.34
